This listing pairs compounds with measured glass transition temperature.

[
  {
    "compound": "*c1ccc(NC(=O)CCCCCC(=O)Nc2ccc(S(*)(=O)=O)cc2)cc1 (repeat unit)",
    "unit": "°C",
    "glass transition temperature": 163.00
  },
  {
    "compound": "*CC(O)COc1ccc(C(C)(C)c2ccc(O*)cc2)cc1 (repeat unit)",
    "unit": "°C",
    "glass transition temperature": 91.00
  },
  {
    "compound": "*/C=C/CC(C*)c1ccccc1 (repeat unit)",
    "unit": "°C",
    "glass transition temperature": 14.00
  },
  {
    "compound": "*CC(*)(C)C(=O)OCCCCCCOc1ccc(C(=O)Oc2ccc(OCCCC)cc2)cc1 (repeat unit)",
    "unit": "°C",
    "glass transition temperature": 49.00
  },
  {
    "compound": "*CCCCCCCCCCCNC(=O)CCCCCCCCCCC(=O)N* (repeat unit)",
    "unit": "°C",
    "glass transition temperature": 39.00
  },
  {
    "compound": "*CCOC(=O)Nc1cc(NC(=O)O*)ccc1C (repeat unit)",
    "unit": "°C",
    "glass transition temperature": 52.00
  },
  {
    "compound": "*CCCCCCNC(=O)CCP(C)(=O)CCC(=O)N* (repeat unit)",
    "unit": "°C",
    "glass transition temperature": 57.50
  },
  {
    "compound": "*C(=O)c1ccc2c(c1)C(=O)N(c1cccc(C(c3cccc(N4C(=O)c5ccc(*)cc5C4=O)c3)(C(F)(F)F)C(F)(F)F)c1)C2=O (repeat unit)",
    "unit": "°C",
    "glass transition temperature": 239.00
  },
  {
    "compound": "*/C=C/c1ccc(/N=N/c2ccc(N(C)CCOC(=O)Nc3ccc(C)c(NC(=O)OCCN(C)c4ccc(/N=N/c5ccc(/C=C/C6=CC(=C(C#N)C#N)C=C(*)O6)cc5)cc4)c3)cc2)cc1 (repeat unit)",
    "unit": "°C",
    "glass transition temperature": 196.00
  },
  {
    "compound": "*OC(COCCOC)COC(*)=O (repeat unit)",
    "unit": "°C",
    "glass transition temperature": -50.00
  },
  {
    "compound": "*Oc1cc(OC(=O)c2ccc(OCC)cc2)c(OC(=O)CCCCCCCCCCCCCCC(*)=O)cc1OC(=O)c1ccc(OCC)cc1 (repeat unit)",
    "unit": "°C",
    "glass transition temperature": 31.00
  },
  {
    "compound": "*c1ccc(-c2cc(CCCCCCOC(=O)COc3ccccc3)c(*)s2)s1 (repeat unit)",
    "unit": "°C",
    "glass transition temperature": 79.00
  },
  {
    "compound": "*CCCCCC(*)C (repeat unit)",
    "unit": "°C",
    "glass transition temperature": -66.00
  },
  {
    "compound": "*c1cccc(P(=O)(c2cccc(-n3c(=O)c4cc5c(=O)n(*)c(=O)c5c(-c5cc(C(F)(F)F)cc(C(F)(F)F)c5)c4c3=O)c2)c2cc(C(F)(F)F)cc(C(F)(F)F)c2)c1 (repeat unit)",
    "unit": "°C",
    "glass transition temperature": 280.00
  },
  {
    "compound": "*CCCCCCCCCCOc1ccc(/C=C2\\CC/C(=C\\c3ccc(OCCCCCCCCCCOP(=O)(O*)OCC)c(OC)c3)C2=O)cc1OC (repeat unit)",
    "unit": "°C",
    "glass transition temperature": 47.00
  },
  {
    "compound": "*/C=C/c1cc(OCCCCCCCC)c(/C=C/c2ccc(*)c3nsnc23)cc1OCCCCCCCC (repeat unit)",
    "unit": "°C",
    "glass transition temperature": 153.00
  }
]
